# target.system: Recombinant KAT6A/MOZ (488-778) protein (Homo sapiens (Human), UniProt Q92794)
# Sequence (Q92794 488-778): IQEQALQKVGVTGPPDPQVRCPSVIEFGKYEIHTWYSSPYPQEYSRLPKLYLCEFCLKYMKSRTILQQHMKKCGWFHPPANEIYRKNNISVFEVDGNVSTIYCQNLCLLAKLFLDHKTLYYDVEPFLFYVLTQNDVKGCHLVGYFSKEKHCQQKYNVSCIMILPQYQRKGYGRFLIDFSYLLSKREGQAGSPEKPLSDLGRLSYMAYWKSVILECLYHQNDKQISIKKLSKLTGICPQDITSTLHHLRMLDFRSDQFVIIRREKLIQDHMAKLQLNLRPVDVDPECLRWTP
# protocol.details: KAT6A AlphaLISA Inhibition Screening Assay
# Assay type: biochemical
# assay.setup: read-out: Average Kat6A % inhibition @ 1 μM; 1 μM test compound
# Procedure: The Kat6a inhibitory activity of test compounds was determined using an Alpha Screen-based detection method. The assay reactions were conducted in a volume of 10 μL in Alpha Plate, White 384 well plate (cat #6008280, Perkin Elmer). The enzymatic reactions were performed in assay buffer pH 8.0 (50 mM Tris-HCl, 0.1 mM EDTA, 0.01% Tween-20, 1 mM Dithiothreitol, 0.1% BSA (fatty acid free) and 330 nM TSA (Trichostatin A)). […]
The entries below are paired with their reported inhibition at 1 µM.
endpoint.label: inhibition at 1 µM (%)

INSERT INTO results (compound, target_system, endpoint_label, result) VALUES
  ('CCc1ccc(OCCC#N)c(S(=O)(=O)Nc2noc3cc(Cn4cc(CNC(=O)OC)cn4)cc(OC)c23)c1 [Syn. Ex. 83]', 'Recombinant KAT6A/MOZ (488-778) protein (Homo sapiens (Human), UniProt Q92794)', 'inhibition at 1 µM', 98),
  ('CCc1ccc(OC)c(S(=O)(=O)Nc2noc3cc(Cn4cc(CNC(=O)OC)cn4)cc(OC(F)F)c23)c1 [Syn. Ex. 63]', 'Recombinant KAT6A/MOZ (488-778) protein (Homo sapiens (Human), UniProt Q92794)', 'inhibition at 1 µM', 95),
  ('CCc1ccc(OCc2ncc[nH]2)c(S(=O)(=O)Nc2noc3cc(Cn4cc(CNC(=O)OC)cn4)cc(OC)c23)c1 [Syn. Ex. 116]', 'Recombinant KAT6A/MOZ (488-778) protein (Homo sapiens (Human), UniProt Q92794)', 'inhibition at 1 µM', 100),
  ('CCc1ccc(OC)c(S(=O)(=O)Nc2noc3cc(Oc4ncc(CNC(=O)OC)s4)cc(OC)c23)c1 [Syn. Ex. 101]', 'Recombinant KAT6A/MOZ (488-778) protein (Homo sapiens (Human), UniProt Q92794)', 'inhibition at 1 µM', 100),
  ('CCc1ccc(OCc2nc[nH]n2)c(S(=O)(=O)Nc2noc3cc(Cn4cc(CNC(=O)OC)cn4)cc(OC)c23)c1 [Syn. Ex. 117]', 'Recombinant KAT6A/MOZ (488-778) protein (Homo sapiens (Human), UniProt Q92794)', 'inhibition at 1 µM', 100),
  ('C#CC(=O)NCc1ccc(Oc2cc(OC)c3c(NS(=O)(=O)c4cc(CC)ccc4OC)noc3c2)nc1 [Syn. Ex. 61]', 'Recombinant KAT6A/MOZ (488-778) protein (Homo sapiens (Human), UniProt Q92794)', 'inhibition at 1 µM', 60),
  ('CCc1ccc(OC)c(S(=O)(=O)Nc2noc3cc(Cn4cc(CNC(=O)OCCO)cn4)cc(OC)c23)c1 [Syn. Ex. 34]', 'Recombinant KAT6A/MOZ (488-778) protein (Homo sapiens (Human), UniProt Q92794)', 'inhibition at 1 µM', 86),
  ('C#CC(=O)N1Cc2cn(Cc3cc(OC)c4c(NS(=O)(=O)c5cc(Cl)ccc5OC)noc4c3)nc2C1 [Syn. Ex. 2]', 'Recombinant KAT6A/MOZ (488-778) protein (Homo sapiens (Human), UniProt Q92794)', 'inhibition at 1 µM', 71),
  ('CCc1ccc(OCCO)c(S(=O)(=O)Nc2noc3cc(Cn4cc(CNC(=O)OC)cn4)cc(OC)c23)c1 [Syn. Ex. 64]', 'Recombinant KAT6A/MOZ (488-778) protein (Homo sapiens (Human), UniProt Q92794)', 'inhibition at 1 µM', 94),
  ('CCc1ccc(OC)c(S(=O)(=O)Nc2noc3cc(Cn4cc(CNC(=O)OC)cn4)c(OC)cc23)c1 [Syn. Ex. 137]', 'Recombinant KAT6A/MOZ (488-778) protein (Homo sapiens (Human), UniProt Q92794)', 'inhibition at 1 µM', 98),
  ('CCc1ccc(OC)c(S(=O)(=O)Nc2noc3cc(Cn4cc(CNC(C)=O)cn4)cc(OC)c23)c1 [Syn. Ex. 8]', 'Recombinant KAT6A/MOZ (488-778) protein (Homo sapiens (Human), UniProt Q92794)', 'inhibition at 1 µM', 99),
  ('CCc1ccc(OC)c(S(=O)(=O)Nc2noc3cc(Oc4cc(CNC(=O)OC)ccn4)cc(OC)c23)c1 [Syn. Ex. 110]', 'Recombinant KAT6A/MOZ (488-778) protein (Homo sapiens (Human), UniProt Q92794)', 'inhibition at 1 µM', 9),
  ('C=C(F)C(=O)NCc1cnc(Oc2cc(OC)c3c(NS(=O)(=O)c4cc(CC)ccc4OC)noc3c2)s1 [Syn. Ex. 102]', 'Recombinant KAT6A/MOZ (488-778) protein (Homo sapiens (Human), UniProt Q92794)', 'inhibition at 1 µM', 99),
  ('C=C(F)C(=O)NCc1cnn(Cc2cc(OC)c3c(NS(=O)(=O)c4cc(CC)ccc4OCc4ccnc(OC)c4)noc3c2)c1 [Syn. Ex. 94]', 'Recombinant KAT6A/MOZ (488-778) protein (Homo sapiens (Human), UniProt Q92794)', 'inhibition at 1 µM', 100),
  ('CCc1ccc(OC)c(S(=O)(=O)Nc2noc3cc(Oc4cccc(CNC(=O)OC)n4)cc(OC)c23)c1 [Syn. Ex. 106]', 'Recombinant KAT6A/MOZ (488-778) protein (Homo sapiens (Human), UniProt Q92794)', 'inhibition at 1 µM', 10);

Measured values drawn from patent US20250122182A1 for this set.
